Test system: Plasmodium berghei
test_summary: Screen against P. berghei liver stage (PbLuc), transformed with Luciferase, at 10uM
Type: functional, HepG2
setup_conditions: tested at 10 uM
Out of some 69,000 compounds screened, about 8,600 (12%) showed an effect of 50% or more. The full list was thinned out, with strong results kept by preference.
Classify by measured INHIBITION: class 1 if it is equal to or exceeds 10%, class 0 if it is smaller.

compound	assigned_label
COCCOc1cccc(CNCc2ccc(-n3cncn3)nc2)c1	class 0
Fc1ccc(-c2nc(CN3CCCC3Cn3cncn3)co2)cc1F (stereo not drawn)	class 1
CC1CN(C)CCN1C(=O)Nc1nc(-c2ccc[nH]2)cs1 (stereo not drawn)	class 0
Cc1cnn(CC(C)NCc2nc(-c3ccsc3)oc2C)c1 (stereo not drawn)	class 0
Cc1[nH]ccc1C(=O)NCc1ncoc1C	class 0
CCCN(Cc1ccc(C#N)cc1)Cc1nnsc1Cl	class 1
CC(C)Cc1cc(C(=O)N2CCC(Oc3cccnc3)CC2)n(C)n1	class 0
Cc1cc(C(=O)NCC2CCS(=O)(=O)C2)ccc1NC(=O)c1ccco1 (stereo not drawn)	class 1
CSc1cccc(CN2CCn3nc(CNC(C)=O)cc3C2)c1	class 0
Cc1ccc([C@]2(O)CC[C@H]3CN(Cc4cc(C)c(O)c(C)c4)C[C@H]32)nc1	class 1
COc1cccc(OC2CN(C(=O)c3cc(CC(C)C)nn3C)C2)c1	class 1
O=C(CCn1cnc2ccccc21)N1CCN2CCCCC2C1 (stereo not drawn)	class 1
Cc1ccc(C(CNC(=O)Nc2cn[nH]c2)N2CCOCC2)o1 (stereo not drawn)	class 0
Cc1cc(C)c(CNC(=O)NC2CCOCC2)c(=O)[nH]1	class 1
CSc1ccc(CN2C[C@@H]3CC[C@@](O)(c4ccc(C)cn4)[C@@H]3C2)cc1	class 1
CCNC(=O)C1(Cc2cc(-c3ccccc3)no2)CCCN(C(C)=O)C1 (stereo not drawn)	class 1
CCCN(CCC)Cc1nnsc1Cl	class 1
Cn1nccc1C(=O)N1CCOC(Cc2cccnc2)C1 (stereo not drawn)	class 1
COc1cccc(OC2CN(C(=O)c3c(C)noc3C)C2)c1	class 0
COC(=O)c1cc(OC)c(OC)cc1N(C)S(C)(=O)=O	class 1
COc1cccc(OC2CN(C(=O)Cn3nc4ccccc4n3)C2)c1	class 1
Cc1ccc([C@]2(O)CC[C@H]3CN(Cc4ccncc4)C[C@H]32)nc1	class 1
O=C(c1cccs1)N1CC[C@@H]2CN(C3CCOCC3)CCO[C@@H]2C1	class 1

----------
Tested on: Plasmodium berghei
test_summary: Screen against P. berghei liver stage (PbLuc), transformed with Luciferase, at 10uM
Type: functional, HepG2
setup_conditions: tested at 10 uM
In all, about 69,000 compounds went through this assay and about 8,600 (12%) showed an effect of 50% or more. Shown is part of a subset that was picked to be rich in strong results.

compound	unit_name	INHIBITION
CCc1cc(N2CCC(Nc3ccc(Cl)cn3)CC2)ncn1	%	84.6
O=C(c1ccc(-c2ccc(O)nc2)s1)N1CCCCCC1	%	-13.87
N#CC1(NC(=O)c2ccc(-c3nc(C4CC4)n[nH]3)cc2)CC1	%	8.38
Cc1ccc(NC(=O)C2CSCN2C(=O)c2cnsn2)c(C)c1 (centres undefined)	%	-50.6
Cc1nccc(-c2cccc(NCC(=O)N3CCCC(C)C3)c2)n1 (centres undefined)	%	53.9
OCCNc1cc(N2CCC(n3cc(C4CCCC4)nn3)CC2)ncn1	%	28
CC(=O)N1CC(C)CN(C(=O)c2cnccn2)c2ccccc21 (centres undefined)	%	60.7
COc1cccc(CC(=O)NC2CCCc3cn[nH]c32)c1 (centres undefined)	%	33.4
CC1CN(C)c2ccccc2N(C(=O)c2c[nH]c(C(C)C)n2)C1 (centres undefined)	%	29.6
COCCC(=O)N1CCC2(COCc3cnc(-c4cccnc4)nc32)C1 (centres undefined)	%	33.1
OC1(CNc2ccc(F)cc2)CCNCC1	%	6.29
CCc1cc(N2CCC(n3cc(C(=O)NC4CC4)nn3)CC2)ncn1	%	89.3
COCCC(=O)N1CCC2(COCc3c(C)nc(NCC4CC4)nc32)C1 (centres undefined)	%	33
CN(C)C(=O)[C@]12CCCN(CC3CC3)C[C@H]1CN(c1ccccn1)C2	%	0.618
COCCC(=O)N1CCC2(COCc3cnc(N(C)C)nc32)C1 (centres undefined)	%	53.2
CC(=O)N1CCC(n2nccc2-c2cnc(NCCO)nc2)CC1	%	33.7
O=C(NC1CC1)c1cn(C2CCN(c3cc(C4CC4)ncn3)CC2)nn1	%	39.3
Cc1c(CN2CCCC(C(=O)CCc3ccccc3)C2)cc(C#N)n1C (centres undefined)	%	19.4
COc1nsc2nc(C3CCCN3C(C)=O)ccc12 (centres undefined)	%	26.12
COCC(=O)N1CCC2(COCc3cnc(NCc4ccco4)nc32)C1 (centres undefined)	%	24.3
CCc1ccc(CC)c(NCc2cnc(N3CCOCC3)nc2)c1	%	-36.4
CCn1cc(-n2cc3nc(N)[nH]cc-3c2=O)cn1	%	-8.69
Cc1ccc(NCC2(O)CCNCC2)cc1C	%	23.1
COc1ccc(NCC2(O)CCNCC2)cc1OC	%	62.7

----------
Tested on: Plasmodium berghei
test_summary: Screen against P. berghei liver stage (PbLuc), transformed with Luciferase, at 10uM
Format: functional, HepG2
setup_conditions: tested at 10 uM
In all, about 69,000 compounds went through this assay and about 8,600 (12%) showed an effect of 50% or more. Many of the other results were omitted from the sample, so strong results are more common in it than they were.
metric_name: INHIBITION (%)

compound	metric_name	unit_name	reported_measurement
COC(=O)CCNC(=O)c1nc(NS(=O)(=O)c2ccccc2)sc1C	INHIBITION	%	32.2
COc1ccccc1CNC(Cc1cccs1)c1nc(C)c(C)s1 (stereo not drawn)	INHIBITION	%	55.6
CCc1cnc(N2CCC3(CC(=O)N(Cc4csc(C)n4)C3)C2)nc1 (stereo not drawn)	INHIBITION	%	34.4
CCC(CC)NCC(C)Oc1cccnc1 (stereo not drawn)	INHIBITION	%	54.6
CS(=O)(=O)N[C@H]1CN(C(=O)c2cscn2)[C@@H]2CCCO[C@H]12	INHIBITION	%	60.2
Cc1cnc(N2CCC3(CC(=O)N(Cc4csc(C)n4)C3)C2)nc1 (stereo not drawn)	INHIBITION	%	54.7
COc1cc(N2CCC3(CCN(Cc4nccs4)CC3)C2)ncn1	INHIBITION	%	91.9
CO[C@H]1CN(C(=O)c2cccnc2)[C@@H]2CCCO[C@H]12	INHIBITION	%	-14.7
Cc1cccc(C(=O)N2C[C@H](NS(C)(=O)=O)[C@@H]3OCCC[C@@H]32)n1	INHIBITION	%	31.1
COCCN1CCn2cc(CNC(=O)c3cnn(C)c3)nc2C1	INHIBITION	%	16.8
CC(=O)N1CCCC2(CN(Cc3ccc(C)s3)CCO2)C1 (stereo not drawn)	INHIBITION	%	-46.8
Cc1cc(C)n(C2CCN(S(C)(=O)=O)CC2)n1	INHIBITION	%	-0.232
CN1C[C@H](NC(=O)c2cscn2)[C@@H]2OCCC[C@@H]21	INHIBITION	%	35.8
COc1cc(N2CC3(CCN(c4ncccn4)C3)C2)ncn1	INHIBITION	%	12.1
COc1cccc(CNC(Cc2cccs2)c2nc(C)c(C)s2)c1OC (stereo not drawn)	INHIBITION	%	42.4
CCCc1n[nH]c(C2CN(C(=O)c3cccc4[nH]ncc34)CCO2)n1 (stereo not drawn)	INHIBITION	%	33.3
COc1ccccc1CNC(Cc1cccs1)c1nc(C)cs1 (stereo not drawn)	INHIBITION	%	47.2
CS(=O)(=O)N1C[C@@H](NC(=O)c2ccno2)[C@@H]2OCCC[C@@H]21	INHIBITION	%	36.7
CCc1cnc(NCC(C)Oc2cccnc2)nc1 (stereo not drawn)	INHIBITION	%	-5.19
CS(=O)(=O)N[C@@H]1CN(C(=O)c2ccccn2)[C@@H]2CCCO[C@@H]21	INHIBITION	%	37.5
O=c1c2cn[nH]c2nc(SCCN2CCCC2)n1-c1ccccc1	INHIBITION	%	17.7
CS(=O)(=O)N[C@@H]1CN(C(=O)c2cccnc2)[C@@H]2CCCO[C@@H]21	INHIBITION	%	56.7
N#Cc1ccc(N2CC3(CCN(c4nccs4)C3)C2)nc1	INHIBITION	%	37.9

----------
Test system: Plasmodium berghei
test_summary: Screen against P. berghei liver stage (PbLuc), transformed with Luciferase, at 10uM
Type: functional, HepG2
setup_conditions: tested at 10 uM
In all, about 69,000 compounds went through this assay and about 8,600 (12%) showed an effect of 50% or more. For the sample, strong results were picked, then their nearest neighbours and some compounds at random.

molecule	INHIBITION
CNc1cc(C2CN(Cc3csc(C)n3)CCO2)nc(C)n1 (stereo not drawn)	41.2%
CCS(=O)(=O)N1CCc2ccc(NC(=O)NC3CCCCC3)cc21	8.41%
CCS(=O)(=O)N1CCCc2ccc(NC(=O)Cc3ccc(F)cc3)cc21	56.1%
O=C(c1cc[nH]n1)N1CCCC1C1CCN(Cc2ccccc2)CC1 (stereo not drawn)	37.9%
Cc1occc1C(=O)N1Cc2nccn2CC(CN2CCCC2)C1 (stereo not drawn)	31.2%
O=C(C1CC1)N1CCCC1C1CCN(Cc2ccccc2)CC1 (stereo not drawn)	-12.6%
CCc1cccc(OC2CN(C(=O)[C@@H](N)CCSC)C2)c1	23.9%
CCS(=O)(=O)N1CCc2ccc(NC(=O)Nc3cccc(C)c3)cc21	85%
CN(C(=O)c1cccnc1)C1CCCN(CCc2ccccc2)C1 (stereo not drawn)	42.2%
O=C(c1ccncc1)N1CCCC1C1CCN(Cc2ccccc2)CC1 (stereo not drawn)	51.1%
CC(=O)c1ccc(-n2c(C)cn(CCC#N)c2=O)cc1	5.36%
CC(=O)c1ccc(-n2c(C)cn(CCS(C)(=O)=O)c2=O)cc1	55.6%
O=C(c1ccc(CN2CCCCC2)cc1)N1CCCC1c1cccs1 (stereo not drawn)	31%
Cc1nc(C2CN(Cc3scnc3C)CCO2)cc(N(C)C)n1 (stereo not drawn)	68.9%
COc1ccc(CNCC2(COc3cccnc3)C[C@@H](O)[C@@H](O)C2)cc1 (stereo partly drawn)	25.3%
O=C(c1ccoc1)N1CC[C@@H](N2CCOCC2)[C@@H]1Cc1ccccc1	35.7%
Cc1csc(C2CCCCN2C(=O)CN(C)C(C)C)n1 (stereo not drawn)	-19.9%
COCC(=O)NCC1(COc2cccnc2)C[C@@H](O)[C@@H](O)C1 (stereo partly drawn)	57.4%
CC(C)(C)C(=O)N1CCC(c2nc(O)cc(-c3ccncc3)n2)CC1	11.1%
O[C@@H]1CC(CNCC2CC2)(COc2cccnc2)C[C@@H]1O (stereo partly drawn)	51%
CSc1ccc(NC(=O)Nc2ccc3c(c2)N(S(C)(=O)=O)CC3)cc1	49%
CO[C@H]1CN(C(C)C)C[C@@H]1NC(=O)Nc1cccc(SC)c1	12.6%
CCS(=O)(=O)N1CCc2ccc(NC(=O)NC(C)(C)C)cc21	46.1%
